Assay: solvent given as SMILES
Conditions: in CCCCCC
# absorption maximum >= 400 nm gives True, anything below gives False

Lookup: Assess whether reported absorption maximum for c1ccc(-c2cc(-c3ccc4ccc5c(-c6ccnc(-c7ccccn7)c6)ccc6ccc3c4c65)ccn2)nc1 sits at 400 nm or higher.
Found: False

Lookup: Assess whether reported absorption maximum for O=C1C=C(Nc2cccc(F)c2F)C(=O)c2ccccc21 sits at 400 nm or higher.
Found: True

Lookup: Assess whether reported absorption maximum for F[B-]1(F)n2cccc2C=C2C=CC=[N+]21 sits at 400 nm or higher.
Found: True

Lookup: Assess whether reported absorption maximum for COc1ccc(-c2sc3c(-c4ccc(OC)cc4)c4n(c3c2-c2ccc(OC)cc2)[B-](F)(F)[N+]2=Cc3c(-c5ccc(OC)cc5)c5sc(-c6ccc(OC)cc6)c(-c6ccc(OC)cc6)c5n3[B-](F)(F)[N+]2=C4)cc1 sits at 400 nm or higher.
Found: True

Lookup: Assess whether reported absorption maximum for N#CSC1=CC2=C(c3ccccc3)c3cc(SC#N)c(N4CCOCC4)n3[B-](F)(F)[N+]2=C1N1CCOCC1 sits at 400 nm or higher.
Found: True

Lookup: Assess whether reported absorption maximum for Cc1cc(O)c(C(C)C)cc1/N=C/c1ccc([N+](=O)[O-])cc1 sits at 400 nm or higher.
Found: False

Lookup: Assess whether reported absorption maximum for COc1ccc(C#Cc2ccc(C#N)cc2)cc1 sits at 400 nm or higher.
Found: False

Lookup: Assess whether reported absorption maximum for CCC1=C(C)C2=Cc3cscc3B(O)N2C1=O sits at 400 nm or higher.
Found: False

Lookup: Assess whether reported absorption maximum for CCCCCCCCCCCCCCCCOc1cc(C#Cc2ccc3ccccc3c2-c2c(C#Cc3cc(OCCCCCCCCCCCCCCCC)c(C#Cc4ccc(C=C(C#N)C#N)cc4)cc3OCCCCCCCCCCCCCCCC)ccc3ccccc23)c(OCCCCCCCCCCCCCCCC)cc1C#Cc1ccc(C=C(C#N)C#N)cc1 sits at 400 nm or higher.
Found: True

Lookup: Assess whether reported absorption maximum for Cc1ccc(-c2cc3ccccc3oc2=O)cc1 sits at 400 nm or higher.
Found: False

Lookup: Assess whether reported absorption maximum for COc1ccccc1-c1nc(-c2ccc(C(F)(F)F)cc2)n(-c2ccc(C)cc2)c1-c1ccccc1OC sits at 400 nm or higher.
Found: False

Lookup: Assess whether reported absorption maximum for COC1=[N+]2C(=C(c3ccccc3)c3ccc(OC)n3[B-]2(F)F)C=C1SC#N sits at 400 nm or higher.
Found: True

Lookup: Assess whether reported absorption maximum for CCCCCCCCCCCCNc1cccc2[n+]1[B-](F)(F)n1c(c3cccc4cccc1c43)=N2 sits at 400 nm or higher.
Found: True

Lookup: Assess whether reported absorption maximum for CCc1c(C)c2n(c1C)[B-](F)(F)[N+]1=C(NCc3ccc(OC)cc3)C(SC#N)=CC1=C2C sits at 400 nm or higher.
Found: True

Lookup: Assess whether reported absorption maximum for Cc1ccc(C(=O)/C=C2\C(=O)Nc3ccccc32)cc1C sits at 400 nm or higher.
Found: False

----------
Assay: solvent given as SMILES
Conditions: in C1COCCO1
readoutKind: absorption maximum (nm)
Give just the numeric value; nm need not be written.

Lookup: // lookup absorption maximum for CC1(C)CC(=O)C2=C(C1)Oc1ccc3ccc(O)cc3c1C2c1ccccn1 (stereo unspecified)
Found: 335

Lookup: // lookup absorption maximum for CCC1=C(C)C2=C(C)c3c(C)c(CC)c(C)n3[B-](F)(F)[N+]2=C1C
Found: 518.6

Lookup: // lookup absorption maximum for CN(C)c1ccc(/C=C/C=C/c2nc3ccccc3o2)cc1
Found: 411

Lookup: // lookup absorption maximum for Nc1cc(N)cc(-c2nc3ccccc3s2)c1
Found: 360

Lookup: // lookup absorption maximum for CN(C)c1ccc(C#Cc2ccccc2)cc1
Found: 326.61

Lookup: // lookup absorption maximum for CCCCCCCCC1(CCCCCCCC)c2cc(C#CC#Cc3ccc(N(c4ccccc4)c4ccccc4)cc3)ccc2-c2ccc(C=O)cc21
Found: 383

----------
Test: solvent given as SMILES
Details: in C1CCOC1
Provide the recorded absorption maximum for the entries that follow.
Give just the numeric value; nm need not be written.

Lookup: // lookup absorption maximum for CN(C)c1ccc(C(=Cc2ccc(/C=C/c3ccc(C#N)cc3)cc2)c2ccc(N(C)C)cc2)cc1
Found: 415

Lookup: // lookup absorption maximum for NS(=O)(=O)c1ccc(N2N=C(c3ccc(O)cc3)CC2c2ccccc2)cc1 (stereo not drawn)
Found: 359

Lookup: // lookup absorption maximum for CC1=[N+]2C(=C(c3ccccc3)c3ccc(/C=C/c4ccc(C(=C(c5ccccc5)c5ccccc5)c5ccccc5)cc4)n3[B-]2(F)F)C=C1
Found: 585

Lookup: // lookup absorption maximum for COc1cc(/C=C/c2cc(OC)c(-c3nc(-c4ccccc4)c(-c4ccccc4)[nH]3)cc2OC)c(OC)cc1/C=C/c1cc(OC)c(-c2nc(-c3ccccc3)c(-c3ccccc3)[nH]2)cc1OC
Found: 444

Lookup: // lookup absorption maximum for CCC1(CC)c2ccccc2-c2ccc(C#Cc3ccc4ccc5cccc6ccc3c4c56)cc21
Found: 402

Lookup: // lookup absorption maximum for CCn1c2ccccc2c2cc(/C=C/c3cccc(/C=C/c4ccc5c(c4)c4ccccc4n5CC)[n+]3CCCS(=O)(=O)[O-])ccc21
Found: 460

Lookup: // lookup absorption maximum for O=P1(c2ccccc2)C(c2cccs2)=Cc2ccccc21 (stereo not drawn)
Found: 368

Lookup: // lookup absorption maximum for [C-]#[N+]c1ccc(-c2ccc(N(C)C)cc2)cc1
Found: 334

----------
Assay: solvent given as SMILES
Settings: in CCCCCCO
# absorption maximum >= 400 nm gives yes (1), anything below gives no (0)

Lookup: Assess whether reported absorption maximum for Nc1ccc(C#Cc2ccc3ccc4ccc(C#Cc5ccc(N)cc5)c5ccc2c3c45)cc1 sits at 400 nm or higher.
Found: yes (1)

Lookup: Assess whether reported absorption maximum for Oc1cccc(/N=C/c2ccccc2Oc2ccccc2)c1 sits at 400 nm or higher.
Found: no (0)

Lookup: Assess whether reported absorption maximum for COC1=C/C(=C\C=C2C=CN(Cc3ccc(Br)cc3)C=C2)C=CC1=O sits at 400 nm or higher.
Found: yes (1)

Lookup: Assess whether reported absorption maximum for CCC1=C(C)C2=C(C)c3c(C)c(CC)c(C)n3[B-](F)(F)[N+]2=C1C sits at 400 nm or higher.
Found: yes (1)

Lookup: Assess whether reported absorption maximum for Cc1ccc(Nc2ccc(Nc3ccc(C)cc3)c3c2C(=O)c2ccccc2C3=O)cc1 sits at 400 nm or higher.
Found: yes (1)

Lookup: Assess whether reported absorption maximum for COC(=O)C(Cc1ccc2oc(-c3ccc4c(c3)c3ccccc3n4-c3ccccc3)nc2c1)NC(=O)OC(C)(C)C (stereo unspecified) sits at 400 nm or higher.
Found: no (0)

----------
Provide the recorded absorption maximum for the entries that follow.
Experiment: solvent given as SMILES
Settings: in ClCCl
Give just the numeric value; nm need not be written.

Lookup: // lookup absorption maximum for CC(C)(C)c1ccc(C2=C(c3ccc(C(C)(C)C)cc3)C(c3ccc(C(C)(C)C)cc3)=[N+]3C2=C(c2ccccc2)c2c(-c4ccc(C(C)(C)C)cc4)c(-c4ccc(C(C)(C)C)cc4)c(-c4ccc(C(C)(C)C)cc4)n2[B-]3(F)F)cc1
Found: 579

Lookup: // lookup absorption maximum for C(=C\c1ccncn1)/c1ccc(N(c2ccccc2)c2ccccc2)cc1
Found: 400

Lookup: // lookup absorption maximum for COC(=O)c1nc2c(N)nc(N(C)C)nc2n1Cc1ccccc1
Found: 338

Lookup: // lookup absorption maximum for CC(C)c1cccc(C(C)C)c1N1C(=O)c2cccc3c(Oc4ccccc4)ccc(c23)C1=O
Found: 364

Lookup: // lookup absorption maximum for Fc1ccc(N(c2ccccc2)c2ccc3ccc4c(N(c5ccccc5)c5ccc(F)cc5)ccc5ccc2c3c54)cc1
Found: 423

Lookup: // lookup absorption maximum for CCOC(=O)c1c(-c2c(Cl)c3ccccc3oc2=O)nn(-c2cccc(Cl)c2)c1C(=O)OCC
Found: 321

Lookup: // lookup absorption maximum for F[B-]1(F)n2c(c3cccc4cccc2c43)=Nc2cccc(Cl)[n+]21
Found: 447

Lookup: // lookup absorption maximum for c1ccc([B-]23Oc4ccccc4-c4c5[n+]6c(c([n+]42)-c2ccccc2O3)-c2ccccc2O[B-]6(c2ccccc2)Oc2ccccc2-5)cc1
Found: 574

Lookup: // lookup absorption maximum for O=Cc1ccc(C2=C3C=c4c(oc5ccccc45)=[N+]3[B-](F)(F)n3c2cc2c4ccccc4oc23)cc1
Found: 593.5

Lookup: // lookup absorption maximum for C(=C\c1ncccn1)/c1ccc(-c2ccc(N(c3ccccc3)c3ccccc3)cc2)cc1
Found: 373

Lookup: // lookup absorption maximum for COc1ccc(C2=C(c3ccc(OC)cc3)c3cccc4c3c(cc3nc5ccccc5nc34)O2)cc1
Found: 500

Lookup: // lookup absorption maximum for C[Si]1(C)c2cc(C#Cc3ccccc3)ccc2C=Cc2ccc(C#Cc3ccccc3)cc21
Found: 403

Lookup: // lookup absorption maximum for CCCCN(CCCC)c1ccc(C#Cc2cc(C#Cc3ccc(N(CCCC)CCCC)cc3)c(C#Cc3cc(C(F)(F)F)cc(C(F)(F)F)c3)cc2C#Cc2cc(C(F)(F)F)cc(C(F)(F)F)c2)cc1
Found: 433

Lookup: // lookup absorption maximum for Cc1cccc2[n+]1[B-](F)(F)n1c(c3cccc4cccc1c43)=N2
Found: 441

Lookup: // lookup absorption maximum for CCN(CC)c1ccc2cc(/C=C/C3=CC(/C=C/c4cc5ccc(N(CC)CC)cc5oc4=O)=[O+][B-](F)(F)O3)c(=O)oc2c1
Found: 625

Lookup: // lookup absorption maximum for COC(=O)c1cc(=O)n(C)c2cc(-c3ccc4c(c3)OCO4)sc12
Found: 404

Lookup: // lookup absorption maximum for CCCCNc1nc(/C=C/c2ccccc2)[n+]([O-])c2c1CCCC2
Found: 415

Lookup: // lookup absorption maximum for C1=C2C3=C(C4=[N+]2[B-]2(Oc5ccccc54)Oc4ccccc4-c4c5c(c1n42)C1CCC5CC1)C1CCC3CC1 (centres undefined)
Found: 626

Lookup: // lookup absorption maximum for C(S/C=C/c1ccc(/C=C/SC=C2CCCCCCC2)cc1)=C1CCCCCCC1
Found: 355

Lookup: // lookup absorption maximum for CCN(CC)c1ccc2c(-c3ccccc3C(=O)O)c3c([o+]c2c1)/C(=C/Nc1ccccc1)CCC3
Found: 607

Lookup: // lookup absorption maximum for Cc1ccc(O)c(-c2[nH]c(=O)n3c2-c2ccccc2C3=O)c1
Found: 393

Lookup: // lookup absorption maximum for C(=C\c1cnc2ccccc2n1)/c1ccc(N2CCCCC2)cc1
Found: 414

Lookup: // lookup absorption maximum for COc1ccc2n1[B-](F)(F)[N+]1=CC=CC1=C2c1ccccc1
Found: 499

Lookup: // lookup absorption maximum for CC(C)(C)c1ccc2c(c1)c1cc(C(C)(C)C)ccc1n2-c1ccc(-c2cccs2)s1
Found: 340

Lookup: // lookup absorption maximum for Clc1ccc(-c2cccc3ncc(-c4ccccc4)n23)cc1
Found: 338

Lookup: // lookup absorption maximum for N#Cc1nc2cnc(N)nc2n1Cc1ccccc1
Found: 326

Lookup: // lookup absorption maximum for Cc1ccccc1-c1c2cccc3c(-c4ccc(C(C)(C)C)cc4)cc4c(-c5ccccc5C)c5cccc6c(-c7ccc(C(C)(C)C)cc7)cc1c(c65)c4c32
Found: 447

Lookup: // lookup absorption maximum for CCOC(=O)c1c(-c2cc3cc4c(cc3oc2=O)OC(C)(C)CC4)nn(-c2cccc(C)c2)c1C(=O)OCC
Found: 347

Lookup: // lookup absorption maximum for COc1ccc(-c2ccc(C(=O)NC(C)(C)C)c3c2ccc2c4ccccc4c4ccccc4c23)cc1
Found: 339

Lookup: // lookup absorption maximum for CCOC(=O)c1c(-c2cc3cc(OC)ccc3oc2=O)nn(-c2cccc(C)c2)c1C(=O)OCC
Found: 351

Lookup: // lookup absorption maximum for Cc1cccc(C)c1/C=C/c1nc(N2CCOCC2)c2c([n+]1[O-])CCCC2
Found: 384

Lookup: // lookup absorption maximum for CCN(CC)c1ccc2cc(-c3nc4cc(C(=O)Nc5cccc(C)c5)ccc4o3)c(=O)oc2c1
Found: 440

Lookup: // lookup absorption maximum for CCCCCCc1ccc2c3c(ccc2c1)O[B-](c1ccccc1)(c1ccccc1)[N+](c1cc([N+]2=Cc4c(ccc5cc(CCCCCC)ccc45)O[B-]2(c2ccccc2)c2ccccc2)cc([N+]2=Cc4c(ccc5cc(CCCCCC)ccc45)O[B-]2(c2ccccc2)c2ccccc2)c1)=C3
Found: 450

Lookup: // lookup absorption maximum for COC(=O)c1nc2cnc(N(C)C)nc2n1Cc1ccccc1
Found: 362
